Target: Cytochrome P450 3A4 (Homo sapiens) (UniProt P08684)
Sequence (P08684 whole entry, looked up): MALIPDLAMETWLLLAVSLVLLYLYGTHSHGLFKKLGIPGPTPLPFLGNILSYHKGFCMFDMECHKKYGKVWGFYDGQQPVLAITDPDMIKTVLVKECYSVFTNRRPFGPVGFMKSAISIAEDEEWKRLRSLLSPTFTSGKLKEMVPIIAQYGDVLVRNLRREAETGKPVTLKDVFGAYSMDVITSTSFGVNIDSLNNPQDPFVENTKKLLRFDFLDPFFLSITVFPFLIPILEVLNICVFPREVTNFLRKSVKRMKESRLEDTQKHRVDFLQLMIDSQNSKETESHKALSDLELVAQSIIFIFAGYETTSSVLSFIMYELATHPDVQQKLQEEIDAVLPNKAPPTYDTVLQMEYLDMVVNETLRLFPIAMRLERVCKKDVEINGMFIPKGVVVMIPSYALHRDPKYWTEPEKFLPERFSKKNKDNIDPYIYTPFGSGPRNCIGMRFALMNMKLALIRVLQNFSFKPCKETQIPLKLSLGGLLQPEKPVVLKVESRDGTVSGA
Assay: qHTS Assay for Inhibitors and Substrates of Cytochrome P450 3A4 (AID 884); also: nearly all actives have a fitted effect of over 50% in size
Settings: recombinant CYP3A4, Luciferin-PPXE luminescence; series mostly up to 57.1 µM
Inconclusive results are not listed. Activity calls are given as the source filed them. Calls follow the shape of the dose curve; as a rule, active = well fitted inhibition curve with a large enough effect; inconclusive = small, poorly fitted or top-dose-only effect; inactive = no such curve, though single readings can be large or run the other way.
Classes used: 1 (yes) = active, 0 (no) = inactive

• COC(=O)c1ccc(C(NC(=O)OCc2ccccc2)/C(C)=C/[C@@H](C)C(=O)N2CCN(C)CC2)cc1 (some centres undefined) = 1 (yes)
• CCC1=C2CC[C@H]3C(=O)N(CC(=O)OC)C(=O)[C@H]3[C@H]2[C@@]2(Cc3ccccc3)C(=NCCc3c[nH]c4ccccc34)OC(=O)N2C1=O = 1 (yes)
• Cc1cc(CNC(=O)C(C)Cc2ccccc2)nn1C (centres undefined) = 1 (yes)
• COc1c(-c2coc3cc4c(cc3c2=O)CC(OC(C)=O)C(C)(C)O4)ccc2c1C=CC(C)(C)O2 (centres undefined) = 0 (no)
• COC(=O)CNC(=O)[C@@]1(C)C=C[C@@H](Cc2ccccc2)N1C(=O)OC = 1 (yes)
• COc1ccc(-c2cc(=O)c3ccccc3o2)cc1OC = 1 (yes)
• Clc1ccc(C2[C@H]3CN(Cc4cccnc4)[C@H](c4ccccc4)C34CC2(c2ccccc2)C4)cn1 (some centres undefined) = 1 (yes)
• CC(C)=CCC/C(C)=C/COc1c2occc2cc2ccc(=O)oc12 = 1 (yes)
• C=CCC1C=CC(Oc2ccc(F)cc2C)C(CO)O1 (centres undefined) = 1 (yes)
• CO[C@H]1COC(=O)[C@@H](Cc2ccccc2)NC(=O)[C@@H](C)COC(=O)CCC[C@@H]1C = 1 (yes)
• Cc1nc(NCCO)c2nc(-c3ccccc3)n(CCN(C)C)c2n1 = 0 (no)
• CCC1=C2CC[C@H]3C(=O)NC(=O)[C@H]3[C@H]2[C@@]2(C)C(=NCCc3c[nH]c4ccccc34)OC(=O)N2C1=O = 1 (yes)
• COC(=O)[C@@H]1C[C@@]2(O)[C@H](O)[C@H](O)[C@H](O)C[C@H]2N1Cc1cccc2ccccc12 = 0 (no)
• CCCCc1nc2c(c3c1CC(C)OC3)CN(CCC(C)C)CC2 (centres undefined) = 1 (yes)
• CC(=O)OCC1OC(c2cc(C)cc(C)c2)C=CC1OC(C)=O (centres undefined) = 1 (yes)
• CCCNC(=O)OC[C@@H]1O[C@H](CCO/N=C(\C)CCC(=O)OC[C@@H]2O[C@H](c3ccccc3)C=C[C@@H]2Oc2ccc(OC)cc2)C=C[C@@H]1Oc1ccc(OC)cc1 = 1 (yes)
• C=CCc1cccc(C2C(C)CCC3C(=O)N4C(Cc5c([nH]c6ccccc56)C4c4cc(OC)c(OC)c(OC)c4)C(=O)N32)c1 (centres undefined) = 1 (yes)
• CC(=O)OCC1OC(C#Cc2ccccc2)C=CC1OC(C)=O (centres undefined) = 1 (yes)
• CN(C)/C=N/c1cc(=O)n(C)c(=O)n1Cc1ccccc1 = 0 (no)

====

Assay: S16 Schwann cell PMP22 intronic element firefly luciferase assay (AID 624032);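 also: plate controls were DMSO for no effect and PTC124 positive control mean for full effect; nearly all actives have a fitted effect of over 30% in size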
Conditions: S16 rat Schwann cells, PMP22 element FLuc, 24 h; series mostly up to 57.5 µM
Protocol: Charcot-Marie-Tooth-Association [CMTA] National Center for Advancing Translational Sciences [NCATS] […] The FLuc-expressing S16 cells were seeded in white solid 1536-well plates at between 500-750 cells/4uL in DMEM medium containing 10% FBS, w/o phenol red. […] Luminescence was measured on a ViewLux plate reader (Perkin Elmer). The % activity was determined by normalizing to the average readings of PTC124 (a positive control) - treated cells relative to DMSO-treated cells (0% Activity). […]
Inconclusive results are not listed. Activity calls are given as the source filed them. Calls come from the whole dose curve; as a rule, active = well fitted inhibition curve with a large enough effect; inconclusive = small, poorly fitted or top-dose-only effect; inactive = no such curve, though single readings can be large or run the other way. Numbered stars: 1 amine (or outer) side, 2 acyl side, 3 side chain; on linkers, the order of the positions; unused ones are H or OH. Bridge positions count the residues as written; N and C are the ends. Square brackets hold non-standard residues; d marks the D form. Peptide text beside a SMILES is read from it. * marks the point of attachment. ξ: configuration not given here. ΔAla(Z-3-ureido) = NC(=O)N/C=C(\N)C(=O)O; X2 = NC1=NC(O)CC(C(N[*:1])C(=O)[*:2])N1; ξβ3hOrn = NCCCC(N)CC(=O)*; Dap = NC[CH](N)C(=O)O
value_kind: outcome

* NCCCC(N)CC(=O)NC1CNC(=O)C(C2CC(O)N=C(N)N2)NC(=O)/C(=C/NC(N)=O)NC(=O)C(CO)NC(=O)C(CO)NC1=O (stereo not drawn) (ξβ3hOrn-[Dap]SS[ΔAla(Z-3-ureido)][X2]; lactam 1-C; configuration not given here) | inactive
* O=C1/C(=C\c2cccs2)CCC/C1=C/c1cccs1 | inactive
* CC(C)C(NC(=O)C(CC(=O)O)NC(=O)C(CCCCN)NC(=O)C(N)CCCN=C(N)N)C(=O)NC(Cc1ccc(O)cc1)C(=O)O (stereo not drawn) (H-RKDVY-OH; configuration not given here) | inactive

====

System: CP325
Experiment: qHTS profiling for inhibitors of Plasmodium falciparum proliferation (AID 504749); also: nearly all actives have a fitted effect of over 60% in size
Settings: P. falciparum in erythrocytes, SYBR Green DNA, 72 h; series mostly up to 28.7 µM
Results filed as inconclusive are left out. Calls of active or inactive are those of the source. Calls come from the whole dose curve; as a rule, active = well fitted inhibition curve with a large enough effect; inconclusive = small, poorly fitted or top-dose-only effect; inactive = flat fitted curve, though single readings scatter. Numbered stars: 1 amine (or outer) side, 2 acyl side, 3 side chain; on linkers, the order of the positions; unused ones are H or OH. Bridge positions count the residues as written; N and C are the ends. Square brackets hold non-standard residues; d marks the D form. Peptide text beside a SMILES is read from it. * marks the point of attachment. ξ: configuration not given here. ΔAla(Z-3-ureido) = NC(=O)N/C=C(\N)C(=O)O; ξDab(CH2SO3H) = NC(CCNCS(=O)(=O)O)C(=O)O; X2 = NC1=NC(O)CC(C(N[*:1])C(=O)[*:2])N1; Heptanoyl(6-Me) = CC(C)CCCCC(=O)*; ξβ3hOrn = NCCCC(N)CC(=O)*; Orn = NCCC[CH](N)C(=O)O; Dab = NCC[CH](N)C(=O)O; Dap = NC[CH](N)C(=O)O
Classes used: Yes (active), No (inactive)

- O=C1/C(=C\c2cccs2)CCC/C1=C/c1cccs1: No
- CCC1NC(=O)C(NC(=O)c2ncccc2O)C(C)OC(=O)C(c2ccccc2)NC(=O)C2CC(=O)CCN2C(=O)C(Cc2ccccc2)N(C)C(=O)C2CCCN2C1=O (configuration not stated): No
- CC(C)CC(NC(=O)C(COC(C)(C)C)NC(=O)C(Cc1ccc(O)cc1)NC(=O)C(CO)NC(=O)C(Cc1c[nH]c2ccccc12)NC(=O)C(Cc1cnc[nH]1)NC(=O)C1CCC(=O)N1)C(=O)NC(CCCN=C(N)N)C(=O)N1CCCC1C(=O)NNC(N)=O (configuration not stated): No
- C=CC1=C(C(=O)O)N2C(=O)[C@@H](NC(=O)C(N=O)c3csc(N)n3)[C@H]2SC1 (some centres not stated): No
- CC1(C)C(/C=C/C=C/C=C/C=C2\N(CCCCS(=O)(=O)O)c3ccc4ccccc4c3C2(C)C)=[N+](CCCCS(=O)(=O)[O-])c2ccc3ccccc3c21: No
- CC(N)C(=O)NCC(=O)NC1CSSCC(C(=O)O)NC(=O)C(CO)NC(=O)C(C(C)O)NC(=O)C(Cc2ccccc2)NC(=O)C(C(C)O)NC(=O)C(CCCCN)NC(=O)C(Cc2c[nH]c3ccccc23)NC(=O)C(Cc2ccccc2)NC(=O)C(Cc2ccccc2)NC(=O)C(CC(N)=O)NC(=O)C(CCCCN)NC1=O (configuration not stated): No
- CC(C)CC1NC(=O)C(CCCN)NC(=O)C(C(C)C)NC(=O)C2CCCN2C(=O)C(Cc2ccccc2)NC(=O)C(CC(C)C)NC(=O)C(CCCN)NC(=O)C(C(C)C)NC(=O)C2CCCN2C(=O)C(Cc2ccccc2)NC1=O (configuration not stated) (cyclo(FPV[Orn]LFPV[Orn]L); configuration not given here): Yes
- CC(=O)OCC(=O)[C@@]1(O)CCC2C3CCC4=CC(=O)CC[C@]4(C)C3=CC[C@@]21C (some centres not stated): No
- COc1ccc(-c2nc3ccc(C4=C(C)CC(=O)NN4)cc3[nH]2)cc1: No
- NCCCC(N)CC(=O)NC1CNC(=O)C(C2CC(O)N=C(N)N2)NC(=O)/C(=C/NC(N)=O)NC(=O)C(CO)NC(=O)C(CO)NC1=O (stereo not drawn) (ξβ3hOrn-[Dap]SS[ΔAla(Z-3-ureido)][X2]; lactam 1-C; configuration not given here): No
- CCC(C)C1NC(=O)C(CCNCS(=O)(=O)O)NC(=O)C(NC(=O)C(CCNCS(=O)(=O)O)NC(=O)C(NC(=O)C(CCNCS(=O)(=O)O)NC(=O)CCCCC(C)C)C(C)O)CCNC(=O)C(C(C)O)NC(=O)C(CCNCS(=O)(=O)O)NC(=O)C(CCNCS(=O)(=O)O)NC(=O)C(C(C)CC)NC1=O (configuration not stated) ({Heptanoyl(6-Me)}-[ξDab(CH2SO3H)]T[ξDab(CH2SO3H)][Dab][ξDab(CH2SO3H)]II[ξDab(CH2SO3H)][ξDab(CH2SO3H)]T; lactam 4-C; configuration not given here): No
- CC(C)C(NC(=O)C(CC(=O)O)NC(=O)C(CCCCN)NC(=O)C(N)CCCN=C(N)N)C(=O)NC(Cc1ccc(O)cc1)C(=O)O (configuration not stated) (H-RKDVY-OH; configuration not given here): No
